Each recorded value in this set is attributed to PubChem BioAssay (NCI).

System: M14 melanoma
Test: NCI tumour cell line growth inhibition, 48 h
List of TGI values.
measuredQuantity: TGI

{"compound": "CCOC(=O)C(=CNc1ccc(N(C2=NCC(C)S2)c2ccc(F)c(Cl)c2)cc1)C(=O)OCC (centres undefined)", "result": "35.4 µM"}
{"compound": "NC(=O)c1cccnc1", "result": "> 100 µM"}
{"compound": "O=C1CCCC/C1=C\\c1ccc([N+](=O)[O-])cc1", "result": "40.8 µM"}
{"compound": "O=Cc1ccc(OC[C@H]2COC(=O)N2)cc1", "result": "> 100 µM"}
{"compound": "CO[C@H]1/C=C/O[C@@]2(C)Oc3c(C)c(O)c4c(O)c(c(/C=N/N5CCN(C)CC5)c(O)c4c3C2=O)NC(=O)/C(C)=C\\C=C\\[C@H](C)[C@H](O)[C@@H](C)[C@@H](O)[C@@H](C)[C@H](OC(C)=O)[C@@H]1C", "result": "> 100 µM"}
{"compound": "O=C(Nc1cccc2[nH]c(C(F)(F)F)nc12)c1cc(Cl)ccc1Cl", "result": "16.3 µM"}
{"compound": "COc1cccc(-c2cc(=O)c3cc4c(cc3[nH]2)OCO4)c1", "result": "2.95 µM"}
{"compound": "O=c1[nH]c(SCc2cccc([N+](=O)[O-])c2)nc2nc[nH]c12", "result": "> 100 µM"}
{"compound": "FC(F)(F)c1ccc2c(c1)nc1n2C(c2c(Cl)cccc2Cl)SC1 (centres undefined)", "result": "36.9 µM"}
{"compound": "COc1c2c(nc3ccccc13)-c1cc(C(CC(=O)OC(C)(C)C)C(=O)OC(C)C)c(CO)c(=O)n1C2 (centres undefined)", "result": "> 100 µM"}
{"compound": "COC(=O)CCC1(CCC(=O)OC)CCCCCCC(CCC(=O)OC)(CCC(=O)OC)C(=O)C1=O", "result": "> 100 µM"}
{"compound": "COc1cc(C2=NN(C(C)=O)C(c3cc(OC)c(OC)c(OC)c3)C2)ccc1O (centres undefined)", "result": "> 100 µM"}
{"compound": "CCCCc1ccc(-n2sc3ncc(-c4ccccc4)cc3c2=O)cc1", "result": "> 100 µM"}
{"compound": "CC1(C)OCC(C2OC3OC(C)(C)OC3C2c2ccccc2)O1 (centres undefined)", "result": "93.9 µM"}
{"compound": "CN/N=C(/c1nc2ccc([N+](=O)[O-])cc2[nH]c1=O)C(O)c1ccc(C(O)/C(=N\\NC)c2nc3ccc([N+](=O)[O-])cc3[nH]c2=O)cc1 (centres undefined)", "result": "> 100 µM"}
{"compound": "Cc1ccc(S(=O)C[C@](NC(=O)OCc2ccccc2)(Sc2ccccc2)C(F)F)cc1 (some centres undefined)", "result": "> 100 µM"}
{"compound": "CN(C)CCCOc1cccc(NC2=C(Cl)C(=O)C(Nc3cccc(OCCCN(C)C)c3)=C(Cl)C2=O)c1", "result": "2.74 µM"}
{"compound": "Oc1ccc(/C=C/c2cccc(/C=C/c3ccc(O)c(O)c3)n2)cc1O", "result": "16.9 µM"}
{"compound": "COc1ccc(-c2c(-c3ccccc3)c(C)c3ccccn23)cc1", "result": "> 100 µM"}

====

Test system: IGROV1 ovarian
Experiment: NCI tumour cell line growth inhibition, 48 h
List of TGI values.

{"compound": "Cn1cc(-c2cc(-c3cn(C)c4ccc(Cl)cc34)[nH]n2)c2cc(Cl)ccc21", "TGI": "6.37 µM"}
{"compound": "COc1ccc(-c2c(C#N)c(N)nc(N3CCOCC3)c2C#N)cc1", "TGI": "21 µM"}
{"compound": "Cc1cccc2oc3c(c(=O)c12)CC(O)C(C)(C)O3 (configuration not stated)", "TGI": "> 100 µM"}
{"compound": "Cc1ccc(S(=O)C[C@](NC(=O)OCc2ccccc2)(Sc2ccccc2)C(F)F)cc1 (some centres not stated)", "TGI": "22.7 µM"}
{"compound": "CC1(C)CC(=O)c2c(nc3c(ccc4ccccc43)c2-c2ccc(NC(=O)CCC(=O)Nc3ccc(-c4c5c(nc6c4ccc4ccccc46)CC(C)(C)CC5=O)cc3)cc2)C1", "TGI": "> 100 µM"}
{"compound": "CC1=Nc2ccccc2SC(c2c(Cl)cccc2Cl)C1 (configuration not stated)", "TGI": "3.31 µM"}
{"compound": "COc1ccc2cc(CNCCCCCCCCNCc3ccc4cc(OC)ccc4c3)ccc2c1", "TGI": "> 100 µM"}
{"compound": "N=c1ccc2nc3ccc(N)cc3sc-2c1", "TGI": "75 µM"}
{"compound": "CCCCCCCCC/C=C1/CC(CO)(COC(=O)CC(C(C)C)C(C)C)OC1=O (configuration not stated)", "TGI": "29.1 µM"}
{"compound": "Cc1nc2ccc(S(=O)(=O)NS(=O)(=O)c3ccc(-c4ccccc4)cc3)cc2c(=O)n1NS(=O)(=O)c1ccc(-c2ccccc2)cc1", "TGI": "> 100 µM"}
{"compound": "C1=Cc2nc1c(-c1ccccc1)c1ccc([nH]1)c(-c1ccccc1)c1nc(c(-c3ccccc3)c3ccc([nH]3)c2-c2ccccc2)C=C1", "TGI": "> 100 µM"}
{"compound": "COc1cc(C(=O)Oc2c(C(C)=O)sc3c2c(=O)n(-c2ccccc2)c(=S)n3-c2ccccc2)cc(OC)c1OC", "TGI": "43.5 µM"}
{"compound": "C1CCCCC2(CCCCCCCCC3(CCC1)SCCS3)SCCS2", "TGI": "> 100 µM"}
{"compound": "O=c1c2c(-c3ccccc3)c3ccccc3nc2cnn1-c1ccccc1", "TGI": "> 100 µM"}
{"compound": "COc1cc(C2=NN(C(C)=O)C(c3cc(OC)c(OC)c(OC)c3)C2)ccc1O (configuration not stated)", "TGI": "> 100 µM"}
{"compound": "Nc1nc2ccc(Sc3ccc4nc(N)[nH]c(=O)c4c3)cc2c(=O)[nH]1", "TGI": "> 100 µM"}
{"compound": "CN/N=C(/c1nc2ccc([N+](=O)[O-])cc2[nH]c1=O)C(O)c1ccc(C(O)/C(=N\\NC)c2nc3ccc([N+](=O)[O-])cc3[nH]c2=O)cc1 (configuration not stated)", "TGI": "> 100 µM"}
{"compound": "C/C(=C(/c1ccccc1)c1ccc(OCC(O)CNCCN2CCOCC2)cc1)c1ccccc1 (configuration not stated)", "TGI": "15 µM"}
{"compound": "CCOc1ccc(N=C(NC(=O)c2ccccc2)SC)cc1", "TGI": "> 100 µM"}
{"compound": "O=C(Cn1cc(Br)c(=O)[nH]c1=O)c1ccc(-c2ccccc2)cc1", "TGI": "> 33.1 µM"}
{"compound": "CC(Oc1ccc(Oc2cnc3ccc(Cl)cc3n2)cc1)C(=O)O (configuration not stated)", "TGI": "> 100 µM"}
{"compound": "O=C1/C(=C\\c2ccc(Br)cc2)CCCc2ccccc21", "TGI": "34.4 µM"}
{"compound": "CCOC(=O)C1Cc2ccc3c4c(ccc(c24)C1)CC(C(=O)OCC)C3", "TGI": "> 100 µM"}
{"compound": "Nc1ccccc1C#CC(=O)c1cccc(C(F)(F)F)c1", "TGI": "1.99 µM"}
{"compound": "Nc1nccc(NCC2(CO)CC(OCc3ccccc3)C2)n1 (configuration not stated)", "TGI": "> 100 µM"}
{"compound": "O=C(N/N=C\\c1cccc2ccccc12)Nc1ccccc1", "TGI": "> 100 µM"}
{"compound": "CCCCc1ccc(-n2sc3ncc(-c4ccccc4)cc3c2=O)cc1", "TGI": "> 100 µM"}
{"compound": "CC(=O)C(C(=O)c1ccc(C)cc1)[C@H]1OC(C)(C)O[C@H]1[C@H]1COC(C)(C)O1 (some centres not stated)", "TGI": "11 µM"}
{"compound": "Nc1c(C(=O)c2cccc(C#CCN3CCCCC3)c2)cnn1-c1ccc(F)cc1", "TGI": "> 25 µM"}
{"compound": "COc1ccc(-c2c(-c3ccccc3)c(C)c3ccccn23)cc1", "TGI": "> 100 µM"}
{"compound": "N#Cc1c2ccc([N+](=O)[O-])cc2c(=O)n2c1[nH]c1ccc(C(F)(F)F)cc12", "TGI": "> 100 µM"}
{"compound": "COc1cc(C2c3cc4c(cc3OC(NNS(=O)(=O)c3ccc(C)cc3)C2C)OCO4)cc(OC)c1OC (configuration not stated)", "TGI": "> 67.3 µM"}
{"compound": "FC(F)(F)c1ccc2c(c1)nc1n2C(c2c(Cl)cccc2Cl)SC1 (configuration not stated)", "TGI": "47.7 µM"}
{"compound": "O=C(/C=C1\\Sc2ccccc2N=C1CC(=O)c1ccccc1)c1ccccc1", "TGI": "37.4 µM"}
{"compound": "Clc1ccc(/C=C/c2ccc3ccccc3n2)cc1", "TGI": "> 80.8 µM"}
{"compound": "O=C(O)c1nc2ccc(C(F)(F)F)cc2nc1Nc1ccc(Cl)c(Cl)c1", "TGI": "34.7 µM"}
{"compound": "CCOC(=O)c1cn2c(n1)sc1cc(OC)ccc12", "TGI": "> 100 µM"}
